# target or system: von Hippel-Lindau disease tumor suppressor/Androgen receptor (Homo sapiens, UniProt P10275+P40337)
# Sequence (P10275 whole entry, looked up): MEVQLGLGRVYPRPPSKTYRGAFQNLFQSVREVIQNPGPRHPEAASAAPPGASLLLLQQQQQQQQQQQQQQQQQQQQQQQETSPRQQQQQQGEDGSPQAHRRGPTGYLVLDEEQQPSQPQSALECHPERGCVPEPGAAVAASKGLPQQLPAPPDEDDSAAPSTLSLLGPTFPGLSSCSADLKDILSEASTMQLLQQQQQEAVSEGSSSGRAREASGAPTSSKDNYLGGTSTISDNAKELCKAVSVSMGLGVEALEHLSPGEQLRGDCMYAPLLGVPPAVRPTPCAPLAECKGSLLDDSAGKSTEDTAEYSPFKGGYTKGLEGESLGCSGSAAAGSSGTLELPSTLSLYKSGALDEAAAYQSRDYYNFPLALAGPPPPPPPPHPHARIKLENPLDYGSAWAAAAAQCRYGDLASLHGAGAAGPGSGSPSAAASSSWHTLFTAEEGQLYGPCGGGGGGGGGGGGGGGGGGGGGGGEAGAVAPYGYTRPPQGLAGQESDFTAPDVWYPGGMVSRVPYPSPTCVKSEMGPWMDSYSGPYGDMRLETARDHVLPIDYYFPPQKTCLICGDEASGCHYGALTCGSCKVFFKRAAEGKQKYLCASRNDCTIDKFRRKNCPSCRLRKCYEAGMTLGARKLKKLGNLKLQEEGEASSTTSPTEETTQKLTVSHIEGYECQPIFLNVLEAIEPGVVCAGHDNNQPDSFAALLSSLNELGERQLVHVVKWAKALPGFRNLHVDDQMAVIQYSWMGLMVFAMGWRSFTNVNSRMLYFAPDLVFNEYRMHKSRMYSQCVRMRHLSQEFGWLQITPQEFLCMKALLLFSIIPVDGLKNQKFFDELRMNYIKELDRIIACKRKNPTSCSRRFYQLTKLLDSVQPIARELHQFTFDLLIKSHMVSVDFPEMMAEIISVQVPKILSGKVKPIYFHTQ
# Sequence (P40337 whole entry, looked up): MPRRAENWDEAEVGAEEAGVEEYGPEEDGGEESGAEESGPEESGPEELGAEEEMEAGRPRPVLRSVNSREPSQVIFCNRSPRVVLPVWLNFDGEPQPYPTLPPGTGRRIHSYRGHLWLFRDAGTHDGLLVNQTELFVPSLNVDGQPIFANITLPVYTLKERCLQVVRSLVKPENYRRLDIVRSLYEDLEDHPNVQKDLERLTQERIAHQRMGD
# test summary: Protac activity at VHL/AR in AR-positive human LNCaP cells assessed as induction of androgen receptor degradation at 0.1 uM incubated for 6 hrs by Western blot analysis (reference value: 0%)
# Type: cell-based
The entries below come with measured Activity values attached.
Kindly answer with a numeric value in %, unit omitted.

Here's what some known entries look like.
Cc1ncsc1-c1ccc([C@H](CC(=O)N2CCC(N3CCC(C#Cc4ccc(C(=O)N[C@H]5C(C)(C)[C@H](Oc6ccc(C#N)c(Cl)c6)C5(C)C)cc4)CC3)CC2)NC(=O)[C@@H]2C[C@@H](O)CN2C(=O)[C@@H](NC(=O)C2(C#N)CC2)C(C)(C)C)cc1 99
Cc1ncsc1-c1ccc(CNC(=O)[C@@H]2C[C@@H](O)CN2C(=O)[C@@H](NC(=O)CCCCCCCCCNC(=O)c2ccc(N3C(=S)N(c4ccc(C#N)c(C(F)(F)F)c4)C(=O)C3(C)C)cc2F)C(C)(C)C)cc1 48
Cc1cc([C@H](C(=O)N2C[C@H](O)C[C@H]2C(=O)N[C@@H](CC(=O)N2CCC(N3CCC(C#Cc4ccc(Cc5c(C)nn(-c6ccc(C#N)c(Cl)c6)c5C)cc4)CC3)CC2)c2ccc(-c3scnc3C)cc2)C(C)C)on1 65

Pending compound:
Query: // lookup Activity for "Cc1cc([C@H](C(=O)N2C[C@H](O)C[C@H]2C(=O)N[C@@H](CC(=O)N2CCC(N3CCC(C#Cc4ccc(N5C(=S)N(c6ccc(C#N)c(C(F)(F)F)c6)C(=O)C5(C)C)cc4)CC3)CC2)c2ccc(-c3scnc3C)cc2)C(C)C)on1"
Reply: 81

---

# target or system: von Hippel-Lindau disease tumor suppressor/Androgen receptor (Homo sapiens, UniProt P10275+P40337)
# test summary: Protac activity at VHL/AR in AR-positive human LNCaP cells assessed as induction of androgen receptor degradation at 0.1 uM incubated for 6 hrs by Western blot analysis (reference value: 0%)
# Format: cell-based
parameter measured: Activity (%)
Kindly answer with a numeric value in %, unit omitted.

Here's what some known entries look like.
compound	Activity / %
Cc1cc([C@H](C(=O)N2C[C@H](O)C[C@H]2C(=O)N[C@@H](CC(=O)N2CCC(N3CCC(C#Cc4ccc(N5C(=S)N(c6cnc(C#N)c(C(F)(F)F)c6)C(=O)C56CCC6)cc4)CC3)CC2)c2ccc(-c3scnc3C)cc2)C(C)C)on1	80
Cc1ncsc1-c1ccc(CNC(=O)[C@@H]2C[C@@H](O)CN2C(=O)[C@@H](NC(=O)CCCCCNC(=O)c2ccc(N3C(=S)N(c4ccc(C#N)c(C(F)(F)F)c4)C(=O)C3(C)C)cc2F)C(C)(C)C)cc1	11
Cc1ncsc1-c1ccc([C@H](C)NC(=O)[C@@H]2C[C@@H](O)CN2C(=O)[C@@H](NC(=O)CCCN2CCN(c3ccc(C#Cc4ccc(N5C(=S)N(c6ccc(C#N)c(C(F)(F)F)c6)C(=O)C5(C)C)cc4)cn3)CC2)C(C)(C)C)cc1	61
Cc1cc([C@H](C(=O)N2C[C@H](O)C[C@H]2C(=O)N[C@@H](CC(=O)N2CCC(N3CCC(C#Cc4ccc(S(=O)(=O)CC(C)(O)C(=O)Nc5ccc(C#N)c(C(F)(F)F)c5)cc4)CC3)CC2)c2ccc(-c3scnc3C)cc2)C(C)C)on1 (some centres undefined)	18
Cc1ncsc1-c1ccc(CNC(=O)[C@@H]2C[C@@H](O)CN2C(=O)[C@@H](NC(=O)CCNC(=O)c2ccc(N3C(=S)N(c4ccc(C#N)c(C(F)(F)F)c4)C(=O)C3(C)C)cc2F)C(C)(C)C)cc1	26
Cc1ncsc1-c1ccc(CNC(=O)[C@@H]2C[C@@H](O)CN2C(=O)[C@@H](NC(=O)CCCCNC(=O)c2ccc(N3C(=S)N(c4ccc(C#N)c(C(F)(F)F)c4)C(=O)C3(C)C)cc2F)C(C)(C)C)cc1	16
Cc1cc([C@H](C(=O)N2C[C@H](O)C[C@H]2C(=O)N[C@@H](CC(=O)NCCCCCCCCCNC(=O)c2ccc(N3C(=S)N(c4ccc(C#N)c(C(F)(F)F)c4)C(=O)C3(C)C)cc2F)c2ccc(-c3sncc3C)cc2)C(C)C)on1	50

Pending compound:
Query: // lookup Activity for "Cc1cc([C@H](C(=O)N2C[C@H](O)C[C@H]2C(=O)N[C@@H](CC(=O)N2CCN(c3ccc(C#Cc4ccc(N5C(=S)N(c6ccc(C#N)c(C(F)(F)F)c6)C(=O)C5(C)C)cc4)cn3)CC2)c2ccc(-c3scnc3C)cc2)C(C)C)on1"
Reply: 72

meta.source: ChEMBL document CHEMBL5260842
